- testedSystem: Fructose-bisphosphate aldolase (Mycobacterium tuberculosis (strain ATCC 25618 / H37Rv))
- experiment: Mtb FBA enzyme inhibitors, primary screen, biochemical, fluorescence, strain H37Rv (AID 588726);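 also: 0% = vehicle and 100% = reference inhibitor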
- runParameters: purified M. tuberculosis FBA, fluorescence read-out, at 1 µM, active compounds read high
Out of some 360,000 compounds screened, about 8,200 (2.3%) were called active. The full list was thinned out, with actives kept by preference.
As shown below, each of these molecules has a reported inhibition value.
readoutName: inhibition (%)

>>> reportedmeasurement("CS(=O)(=O)N(CC(=O)N1CCOCC1)c1ccc2c3c(cccc13)CC2")
9.05
>>> reportedmeasurement("C[C@@H]1CN([C@H](C)CO)S(=O)(=O)c2ccc(C#CC3CCCCC3)cc2O[C@H]1CN(C)C(=O)Cc1ccncc1")
-2.18
>>> reportedmeasurement("CC(NCCc1ccc(S(N)(=O)=O)cc1)C(=O)NCc1ccccc1 (configuration not stated)")
0.46
>>> reportedmeasurement("COc1ccccc1CN1CC(C(=O)NCCc2cn[nH]c2)CCC1=O (configuration not stated)")
3.36
>>> reportedmeasurement("Cc1nc(-c2ccccc2)sc1-c1nnc(C2CC2)o1")
18.1
>>> reportedmeasurement("CC1(C)C2CC[C@]3(C)C(CC=C4[C@@H]5C[C@@](C)(CO)CC[C@]5(C(=O)O)CC[C@]43C)[C@@]2(C)CC[C@@H]1O (some centres not stated)")
0.29
>>> reportedmeasurement("Fc1cnc(N2CCOCC2)nc1NCc1ccccc1")
15.4
>>> reportedmeasurement("CCN1CCN(C(=O)c2cc3cc4ccc(OC)cc4nc3s2)CC1")
43.9
>>> reportedmeasurement("CCNC(=O)COC(=O)CCNC(=O)c1cccc(C)c1")
-2.08
>>> reportedmeasurement("c1cnc(NC2C3CC4CC(C3)CC2C4)nc1 (configuration not stated)")
1.67
>>> reportedmeasurement("COc1ccc(OCC(=O)N2CCN(C(=O)c3cccs3)CC2)cc1")
1.53
>>> reportedmeasurement("COC(=O)Cc1nc2c(N)nc(N)nc2[nH]c1=O")
159
>>> reportedmeasurement("CCOC(=O)N1CCC(NC(=O)c2cnn3ccccc23)CC1")
30.3
>>> reportedmeasurement("COCCNC(=O)C1CCN(S(=O)(=O)c2ccc3c(c2)OCCO3)CC1")
-1.67
>>> reportedmeasurement("CCCN(CC(=O)Nc1ccccc1C)C(=O)c1ccc(OCC(=O)N2CCOCC2)c(OCC)c1")
-1.46
>>> reportedmeasurement("Cc1ccc2c(C)c(C(=O)N3CCC(N4CCC(C(=O)NC5CC5)CC4)CC3)oc2c1")
1.31
>>> reportedmeasurement("CC(=O)NS(=O)(=O)c1ccc(NC(=O)/C=C/c2ccccc2Cl)cc1")
6.43
>>> reportedmeasurement("CN(CC(=O)Nc1ccccc1C(F)(F)F)C(=O)Cc1ccccc1F")
-1.8
>>> reportedmeasurement("CC(CN1CCOCC1)c1ccccc1 (configuration not stated)")
-0.87
>>> reportedmeasurement("CCOC(=O)N1CCC(NC(=O)CCc2cn(C)c3ccccc23)CC1")
8.05
>>> reportedmeasurement("CCOC(=O)N1CCC(NC(=O)Cc2cn(C)c3ccccc23)CC1")
11
>>> reportedmeasurement("COC(=O)C1=C(C)N(C)C(=S)NC1c1cc(OC)ccc1OC (configuration not stated)")
2.6

---

As shown below, each of these molecules has a reported inhibition value.
- testedSystem: Fructose-bisphosphate aldolase (Mycobacterium tuberculosis (strain ATCC 25618 / H37Rv)) (UniProt P9WQA3)
- Sequence (P9WQA3 whole entry, looked up): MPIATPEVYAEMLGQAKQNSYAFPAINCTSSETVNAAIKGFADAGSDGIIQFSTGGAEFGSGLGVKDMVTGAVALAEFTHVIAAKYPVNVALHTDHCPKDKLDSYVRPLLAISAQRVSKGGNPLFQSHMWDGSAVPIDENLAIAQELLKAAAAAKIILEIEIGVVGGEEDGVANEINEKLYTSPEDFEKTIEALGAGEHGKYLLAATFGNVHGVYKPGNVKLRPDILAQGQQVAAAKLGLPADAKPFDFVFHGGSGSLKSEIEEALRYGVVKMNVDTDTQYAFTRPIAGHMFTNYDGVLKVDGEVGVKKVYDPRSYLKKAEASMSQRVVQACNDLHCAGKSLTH
- experiment: Mtb FBA enzyme inhibitors, primary screen, biochemical, fluorescence, strain H37Rv (AID 588726);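 also: 0% = vehicle and 100% = reference inhibitor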
- runParameters: purified M. tuberculosis FBA, fluorescence read-out, at 1 µM, active compounds read high
Hit rate of the full screen: of about 360,000 compounds, about 8,200 (2.3%) were called active. Many of the other results were omitted from the sample, so actives are more common in it than they were.
readoutName: inhibition

>>> reportedmeasurement("N#CC(C#N)=CN=c1ccn(Cc2ccc(Cl)cc2Cl)cc1")
"-0.58% (inactive)"
>>> reportedmeasurement("Cn1c(CCNS(=O)(=O)c2ccc(F)cc2)nnc1SCc1cccnc1")
"-0.16% (inactive)"
>>> reportedmeasurement("CC1CCN(S(=O)(=O)c2ccc3c(ccn3CC(=O)O)c2)CC1")
"-0.33% (inactive)"
>>> reportedmeasurement("Cc1nn(C)c(Oc2ccccc2)c1CCNS(=O)(=O)c1ccc(F)cc1")
"28.7% (active)"
>>> reportedmeasurement("O=C(COc1ccc2c(c1)CCC2)N1CCN(c2ccc(F)cc2)CC1")
"-1.29% (inactive)"
>>> reportedmeasurement("Cc1ccn2c(c1)nc(=O)c1cc(S(=O)(=O)N3CCC(C)CC3)ccc12")
"29.3% (active)"

---

- testedSystem: Fructose-bisphosphate aldolase (Mycobacterium tuberculosis (strain ATCC 25618 / H37Rv)) (UniProt P9WQA3)
- experiment: Mtb FBA enzyme inhibitors, primary screen, biochemical, fluorescence, strain H37Rv (AID 588726);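 also: 0% = vehicle and 100% = reference inhibitor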
- runParameters: purified M. tuberculosis FBA, fluorescence read-out, at 1 µM
Out of some 360,000 compounds screened, about 8,200 (2.3%) were called active. Cut-off read from the data, not from the text of the source: active = inhibition above about 27%; inactive = the rest. The list comes from a sample in which actives are over-represented; it also holds close analogues and randomly drawn compounds.
Outcomes: TRUE (active), FALSE (inactive)

>>> grouplabel("Cc1ccccc1N1C(=O)C(Oc2ccc(Cl)cc2)C1CNCC1CCCO1 (configuration not stated)")
"FALSE"
>>> grouplabel("Cc1cccn2c(=O)c3cc(C(=O)NCC4CCCO4)c(=N)n(Cc4ccc(F)cc4)c3nc12 (configuration not stated)")
"TRUE"
>>> grouplabel("Brc1ccc(C2=CC(c3ccco3)n3ncnc3N2)cc1 (configuration not stated)")
"TRUE"
>>> grouplabel("COc1ccc2c(c1)CCc1cn3ncc(C#N)c3nc1-2")
"TRUE"
>>> grouplabel("N#Cc1cnn2cc(CCN3CCOCC3)c(-c3ccc(F)cc3)nc12")
"FALSE"
>>> grouplabel("O=C(CSc1ncn[nH]1)Nc1nc2c(F)c(F)c(F)cc2s1")
"FALSE"
>>> grouplabel("COc1cc(OC)c(C(=O)OC(C)C(=O)Nc2cc(C(F)(F)F)ccc2Cl)cc1OC (configuration not stated)")
"FALSE"
>>> grouplabel("CC1=C(C(=O)OC2CCCCC2)C(c2cccnc2)n2ncnc2N1 (configuration not stated)")
"FALSE"
>>> grouplabel("COc1cc2c(cc1OC)C(C)N(S(=O)(=O)c1cnc(Cl)c(Cl)c1)CC2 (configuration not stated)")
"FALSE"
>>> grouplabel("Cc1ccc(Cn2c(C)c3cnn(CC(=O)NCCN4CCOCC4)c(=O)c3c2C)cc1")
"FALSE"
>>> grouplabel("Cc1noc(C)c1COc1ccc2ccc(=O)oc2c1")
"TRUE"
>>> grouplabel("COC(=O)C1C(=O)CC(C)(O)C(C(=O)OC)C1c1ccc2c(c1)OCO2 (configuration not stated)")
"FALSE"
>>> grouplabel("COc1ccc2c(c1)CCc1c(C(=O)N3CCCC3)noc1-2")
"FALSE"
>>> grouplabel("Cc1noc(C)c1COC(=O)COc1ccc(-c2ccccc2)cc1")
"FALSE"
>>> grouplabel("Cc1ccc(CCNC(=O)c2ccc3nc4ccccc4c(=O)n3c2)cc1")
"FALSE"
>>> grouplabel("CC1COC2C(O1)N(S(C)(=O)=O)CCN2S(C)(=O)=O (configuration not stated)")
"FALSE"
>>> grouplabel("Cc1cccc(NC(=O)c2ccc3c(=O)n(CC4CCCO4)c(=S)[nH]c3c2)c1 (configuration not stated)")
"FALSE"
>>> grouplabel("O=c1cc(C(F)(F)F)[nH]c(=O)n1C1CCCCC1")
"FALSE"
>>> grouplabel("O=C(NCc1cccnc1)c1cc(S(=O)(=O)N2CCOCC2)c(Cl)cc1Cl")
"FALSE"
>>> grouplabel("CCCCNC(=O)N1CCCC(N(C)CCc2ccc(OC)c(OC)c2)C1 (configuration not stated)")
"FALSE"
>>> grouplabel("O=C(CNS(=O)(=O)c1ccc2ccccc2c1)Nc1ccc(F)c(F)c1F")
"FALSE"
>>> grouplabel("CC(C)OC(=O)c1ccc(COc2ccc3ccc(=O)oc3c2)o1")
"FALSE"

---

- testedSystem: Fructose-bisphosphate aldolase (Mycobacterium tuberculosis (strain ATCC 25618 / H37Rv))
- experiment: Mtb FBA enzyme inhibitors, primary screen, biochemical, fluorescence, strain H37Rv (AID 588726);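 also: 0% = vehicle and 100% = reference inhibitor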
- runParameters: purified M. tuberculosis FBA, fluorescence read-out, at 1 µM, active compounds read high
Among all 360,000 compounds or so, about 8,200 (2.3%) were called active. The entries come from a sample that favours actives as a whole.
As shown below, each of these molecules has a reported inhibition value.
readoutName: inhibition (%)

>>> reportedmeasurement("S=C(NC1CCCCC1)NN1CCOCC1")
-5.42
>>> reportedmeasurement("O=C(O)CCc1nc2cc(Cl)ccc2n(Cc2ccccc2)c1=O")
1.59
>>> reportedmeasurement("CN(C)C(=O)CCC(=O)N1CCCCC1C(=O)Nc1ccc(Oc2ccccc2F)cc1 (stereo unspecified)")
-1.93
>>> reportedmeasurement("O=C(O)CCCn1c(=O)c2cccn2c2ccc(F)cc21")
6.9
>>> reportedmeasurement("CSCCNC(=O)c1ccc2nc(Cc3ccccc3F)oc2c1")
3.27
>>> reportedmeasurement("Cc1nnc(NC(=O)CSc2nccn2-c2cccc(C)c2C)s1")
1.13
>>> reportedmeasurement("CC(C)(C)N1CC(c2nc3ccccc3n2Cc2ccc(F)cc2)CC1=O (stereo unspecified)")
-9.37
>>> reportedmeasurement("COCCn1c(SCC(=O)N2CCCCCC2)nc2c(c1=O)SCC2")
-1.33
>>> reportedmeasurement("CN1CCN(c2ccc([N+](=O)[O-])c(Sc3nc4ccccc4[nH]3)c2)CC1")
-3.38
>>> reportedmeasurement("O=C(CCN1C(=O)C2C3CCC(C3)C2C1=O)Nc1ccc(Cl)cc1Cl (stereo unspecified)")
3.23
>>> reportedmeasurement("COc1cc(/C=C/C(=O)O)cc(S(=O)(=O)Nc2ccccc2SC)c1OC")
-0.58

Entry source: PubChem BioAssay AID588726
